Hey, just so you know, these numbers are from paper PMC3958260.

Tested on: aptamer # 3_7 (DNA, aptamer) ATACCAGCTTATTCAATTGGTGGTAGGATGGGCTCGATCGAGGTCTTCAGTCGGCTCGGTTTAGTTTATGTTCTCCTGTAGATAGTAAGTGCAATCT
Procedure Details: bead fluorescence release assay
Test Settings: 100 mM Na+, 5 mM K+, 2 mM Mg2+, 1 mM Ca2+; 20 mM Tris-HCl pH 7.6, 21 °C; 1 mM compound; release from capture oligo iODN2Sp; single concentration
Reported Property: amount of eluted aptamer DNA (pmol)
Give bare numbers, in pmol.

// below: answered molecules
| Molecular String | amount of eluted aptamer DNA, pmol |
| --- | --- |
| CCN[C@@H]1C[C@H](N)[C@@H](O[C@H]2OC(CN)=CC[C@H]2N)[C@H](O)[C@H]1O[C@H]1OC[C@](C)(O)[C@H](NC)[C@H]1O | 1.03 |
| NC[C@H]1O[C@H](O[C@H]2[C@H](O)[C@@H](O[C@H]3O[C@H](CO)[C@@H](O)[C@H](N)[C@H]3O)[C@H](N)C[C@@H]2N)[C@H](O)[C@@H](O)[C@@H]1O | 4.62 |
| NC[C@H]1O[C@H](O[C@H]2[C@H](O)[C@@H](O[C@H]3O[C@H](CO)[C@@H](O)[C@H](N)[C@H]3O)[C@H](N)C[C@@H]2N)[C@H](N)[C@@H](O)[C@@H]1O | 4.42 |

Given the molecule CN[C@@H]1[C@@H](O[C@H]2O[C@H](CO)[C@@H](N)[C@H](O)[C@H]2O)O[C@H]2C[C@@H](N)[C@@H](O[C@H]3[C@H](O)[C@@H](O)[C@H](N)C[C@@H]3N)O[C@@H]2[C@@H]1O , what is its reported amount of eluted aptamer DNA?
3.04
